test system: Frog (Rana pipiens) Skin; type: cell-based; conditions: cyclic analogues; p = prolonged action
Positions of bridges follow the written chain, without caps; N, C: chain ends. Non-standard residues stand in square brackets, D forms with d. Residues, ends and D or L forms follow the SMILES beside them. Nle = CCCC[C@H](N)C(=O)O
endpoint: Residual Activity Frog

Completed entries (count: 4):
INSERT INTO assay_data (molecule, target_of_assay, value_observed) VALUES
  ('CCCC[C@H](NC(C)=O)C(=O)N[C@H]1CCC(=O)NCCCC[C@@H](C(N)=O)NC(=O)[C@H](Cc2c[nH]c3ccccc23)NC(=O)[C@H](CCCNC(=N)N)NC(=O)[C@@H](Cc2ccccc2)NC(=O)[C@H](Cc2c[nH]cn2)NC1=O', 'Frog (Rana pipiens) Skin', 'p(+)'),
  ('CCCC[C@H](NC(C)=O)C(=O)N[C@H]1CCC(=O)NCCCC[C@@H](C(=O)NCC(=O)N2CCC[C@H]2C(=O)N[C@H](C(N)=O)C(C)C)NC(=O)[C@H](Cc2c[nH]c3ccccc23)NC(=O)[C@H](CCCNC(=N)N)NC(=O)[C@@H](Cc2ccccc2)NC(=O)[C@H](Cc2c[nH]cn2)NC1=O [Analogue 15] (Ac-[Nle]EH[dF]RWKGPV-NH2; lactam 2-7)', 'Frog (Rana pipiens) Skin', 'p(+)'),
  ('CCCC[C@H](NC(C)=O)C(=O)N[C@H]1CC(=O)NCCC[C@@H](C(N)=O)NC(=O)[C@H](Cc2c[nH]c3ccccc23)NC(=O)[C@H](CCCNC(=N)N)NC(=O)[C@@H](Cc2ccccc2)NC(=O)[C@H](Cc2c[nH]cn2)NC1=O', 'Frog (Rana pipiens) Skin', 'p(-)'),
  ('CCCC[C@H](NC(C)=O)C(=O)N[C@H]1CC(=O)NCC[C@@H](C(N)=O)NC(=O)[C@H](Cc2c[nH]c3ccccc23)NC(=O)[C@H](CCCNC(=N)N)NC(=O)[C@@H](Cc2ccccc2)NC(=O)[C@H](Cc2c[nH]cn2)NC1=O', 'Frog (Rana pipiens) Skin', 'p(-)');

Specify measured Residual Activity Frog for "CCCC[C@H](NC(C)=O)C(=O)N[C@H]1CC(=O)NC[C@@H](C(N)=O)NC(=O)[C@H](Cc2c[nH]c3ccccc23)NC(=O)[C@H](CCCNC(=N)N)NC(=O)[C@@H](Cc2ccccc2)NC(=O)[C@H](Cc2c[nH]cn2)NC1=O" .
p(-)

----------
system: Lizard (Anolis carolinensis) Skin; assay type: cell-based; settings: linear analogues; P = prolonged action
Non-standard residues stand in square brackets, D forms with d. Residues, ends and D or L forms follow the SMILES beside them. Nle = CCCC[C@H](N)C(=O)O; Dab = NCC[C@H](N)C(=O)O
endpoint: Residual Activity Lizard

INSERT INTO results (molecule, value_observed) VALUES
  ('CCCC[C@H](NC(C)=O)C(=O)N[C@@H](CCC(=O)O)C(=O)N[C@@H](Cc1c[nH]cn1)C(=O)N[C@H](Cc1ccccc1)C(=O)N[C@@H](CCCNC(=N)N)C(=O)N[C@@H](Cc1c[nH]c2ccccc12)C(=O)N[C@@H](CCCCN)C(N)=O', 'P(-)'),
  ('CCCC[C@H](NC(C)=O)C(=O)N[C@@H](CC(=O)O)C(=O)N[C@@H](Cc1c[nH]cn1)C(=O)N[C@@H](Cc1ccccc1)C(=O)N[C@@H](CCCNC(=N)N)C(=O)N[C@@H](Cc1c[nH]c2ccccc12)C(=O)N[C@@H](CCCCN)C(N)=O', 'P(-)'),
  ('CCCC[C@H](NC(C)=O)C(=O)N[C@@H](CC(=O)O)C(=O)N[C@@H](Cc1c[nH]cn1)C(=O)N[C@H](Cc1ccccc1)C(=O)N[C@@H](CCCNC(=N)N)C(=O)N[C@@H](Cc1c[nH]c2ccccc12)C(=O)N[C@@H](CN)C(N)=O', 'P(-)'),
  ('CCCC[C@H](NC(C)=O)C(=O)N[C@@H](CCC(=O)O)C(=O)N[C@@H](Cc1c[nH]cn1)C(=O)N[C@H](Cc1ccccc1)C(=O)N[C@@H](CCCNC(=N)N)C(=O)N[C@@H](Cc1c[nH]c2ccccc12)C(=O)N[C@@H](CCN)C(N)=O [Analogue 10] (Ac-[Nle]EH[dF]RW[Dab]-NH2)', 'P(±)');

Source of measurements: patent EP0292291B1
